Cited source: patent US20050107386A1

Give measured Inhibitory activity (% of control), CK2(h) for each item. Keep answers brief.
- subject of test: CK2(h) (Homo sapiens, UniProt P68400)
- Sequence (P68400 whole entry): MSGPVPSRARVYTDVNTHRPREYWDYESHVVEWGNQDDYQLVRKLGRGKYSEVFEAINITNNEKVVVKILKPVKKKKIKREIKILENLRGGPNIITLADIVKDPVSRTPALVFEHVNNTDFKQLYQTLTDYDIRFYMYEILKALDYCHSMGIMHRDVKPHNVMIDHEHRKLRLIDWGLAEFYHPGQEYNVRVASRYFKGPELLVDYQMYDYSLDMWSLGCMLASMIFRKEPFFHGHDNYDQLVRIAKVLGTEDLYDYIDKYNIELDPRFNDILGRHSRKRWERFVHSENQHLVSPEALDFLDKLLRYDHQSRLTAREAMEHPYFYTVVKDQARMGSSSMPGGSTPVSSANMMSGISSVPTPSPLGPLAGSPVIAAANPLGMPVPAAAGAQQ
- Sequence (P67870 whole entry partner): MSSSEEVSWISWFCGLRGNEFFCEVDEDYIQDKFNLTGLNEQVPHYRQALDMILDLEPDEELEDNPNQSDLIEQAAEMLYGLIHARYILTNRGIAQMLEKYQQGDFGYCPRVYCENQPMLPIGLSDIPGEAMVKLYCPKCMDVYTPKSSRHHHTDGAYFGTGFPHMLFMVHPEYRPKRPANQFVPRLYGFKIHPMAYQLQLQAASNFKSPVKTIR
- assay overview: CK2(h) kinase assay
- Format: biochemical
- experimental parameters: 3 μM; percent of control kinase activity

Please state Inhibitory activity (% of control), CK2(h) for every compound in the list that follows.
1. Fc1ccc(-c2n[nH]c3ccc(-c4n[nH]c(C5CCCC5)n4)cc23)cc1 [CC006, reference compound]
2. CC(C)(C)Cc1nc(-c2ccc3[nH]nc(-c4ccc5cc(OCc6ccccn6)ccc5c4)c3c2)n[nH]1 [CC004]
3. O=C(NC1CCCC1)c1cccc(-c2n[nH]c3ccc(-c4nc[nH]n4)cc23)c1 [CC007, reference compound]

Solution:
1. 50 % of control
2. 98 % of control
3. 27 % of control
